// data source = ChEMBL document CHEMBL1255546

target desc: Histamine H1 receptor (Homo sapiens)
procedure text: Displacement of [3H]-mepyramine from human histamine H1 receptor
Parameters: concentration or dose not given beside the values
particulars: concentration not given here
Decide using inhibition: a value greater than or equal to 10% is True, a smaller one is False.

Would you say `CC(C)N1CCC(Oc2ccc3c(c2)cc2n3CCCNC2=O)CC1` shows inhibition at minimum 10%? False

Is it the case that `C[C@H]1CC[C@H](C)N1CCCOc1ccc2c(c1)cc1n2CCNC1=O` has inhibition reaching or exceeding 10%? True

Is inhibition at least 10%? Consider `CC(C)N1CCC(Oc2ccc3c(c2)cc2n3[C@H](C)CNC2=O)CC1` False

For this molecule, is measured inhibition 10% or higher? `O=C1NCCn2c1cc1cc(OCCCN3CCCCC3)ccc12` True

Can `CC(C)N1CCC(Oc2ccc3c(c2)cc2n3CCCN(CC3CC3)C2=O)CC1` be said to have inhibition at or above 10%? False
